Where do the numbers come from? From the supplement of paper PMC7840683.

For each of the molecules below, state its LDH release cytotoxicity.
Test system: HepaRG
Assay: LDH release cytotoxicity, % of total lysis control; higher = more cytotoxic
Details: 100 µM; 48 h
Answers are plain numbers, in %.

// solved cases for LDH release cytotoxicity follow
INSERT INTO assay_data (molecule, endpoint, valuemeasured) VALUES
  ('O=C1CCC(C2CCCCC2)CC1', 'LDH release cytotoxicity', 0.739),
  ('CNC(=O)C1OC(n2cnc3c(NCc4cc(Cl)ccc4OCc4cc(C)no4)ncnc32)C(O)C1N (configuration not stated)', 'LDH release cytotoxicity', 0.0796),
  ('COCc1cnc(C2=NC(C)(C(C)C)C(=O)N2)c(C(=O)O)c1 (configuration not stated)', 'LDH release cytotoxicity', -0.764),
  ('CC(C)=CCC/C(C)=C/CO', 'LDH release cytotoxicity', -0.773),
  ('Nc1ccc(S(=O)(=O)c2ccc(N)cc2)cc1', 'LDH release cytotoxicity', 1.63);

Batch of 4 molecules: report LDH release cytotoxicity for each.
1. CCC(C)(C)c1ccc(O)c(C(C)(C)CC)c1
2. O=C(OCCCCCCOC(=O)c1ccccc1)c1ccccc1 [Hexane-1,6-diyl dibenzoate]
3. CCCCCOC(C)=O [Pentyl acetate]
4. CC1=C(C(=O)Nc2ccccc2)SCCO1

Response line:
1. 0.754
2. -0.594
3. -10
4. 8.14
